Target: human dopamine (hDAT) uptake transporter (Homo sapiens, UniProt Q01959)
Sequence (Q01959 whole entry): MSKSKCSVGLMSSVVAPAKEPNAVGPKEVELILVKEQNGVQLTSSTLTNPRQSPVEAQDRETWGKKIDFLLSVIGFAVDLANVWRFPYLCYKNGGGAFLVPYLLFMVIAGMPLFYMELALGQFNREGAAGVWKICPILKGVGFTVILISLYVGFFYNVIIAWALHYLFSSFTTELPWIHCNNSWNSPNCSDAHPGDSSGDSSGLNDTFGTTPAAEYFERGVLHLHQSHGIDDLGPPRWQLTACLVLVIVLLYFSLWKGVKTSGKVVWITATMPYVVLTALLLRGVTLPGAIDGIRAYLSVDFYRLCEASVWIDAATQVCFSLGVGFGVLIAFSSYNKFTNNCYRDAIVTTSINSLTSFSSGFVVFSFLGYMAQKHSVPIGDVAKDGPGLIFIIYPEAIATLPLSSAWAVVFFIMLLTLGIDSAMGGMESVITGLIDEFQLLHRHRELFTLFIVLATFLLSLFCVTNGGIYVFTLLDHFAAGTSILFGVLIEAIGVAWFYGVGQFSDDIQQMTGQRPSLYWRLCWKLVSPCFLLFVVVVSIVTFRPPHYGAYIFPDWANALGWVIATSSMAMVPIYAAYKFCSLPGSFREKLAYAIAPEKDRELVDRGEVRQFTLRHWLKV
Test: Monoamine uptake inhibition, dopamine uptake in transfected HEK293 cells
Method: The monoamine uptake transporter inhibition was examined in accordance with previously described methods by for each substance of interest. […] The data were analysed using Prism software (version 8, GraphPad, San Diego, CA, USA) and was fitted by a nonlinear regression to variable-slope sigmoidal dose-response curve. […]
Would you mind telling me the reported IC50 of each entry?
For clarity, give the value followed by its unit.

Ask: Requested field: IC50. Item: CCCCC(C(=O)c1ccc(C)cc1)N1CCCC1 (stereo not drawn)
Reply: 60 nM

Ask: Now try COc1ccc(C(=O)C(C)N2CCCC2)cc1 (stereo not drawn) .
Reply: 4600 nM

Ask: Now try CCCC(C(=O)c1ccc2c(c1)OCO2)N1CCCC1 (stereo not drawn) .
Reply: 30 nM

Ask: Now try Cc1ccc(C(=O)C(C)N2CCCC2)cc1 (stereo not drawn) .
Reply: 750 nM

Ask: Now try CCCCC(C(=O)c1ccc2c(c1)OCO2)N1CCCC1 (stereo not drawn) .
Reply: 50 nM

Ask: Now try CCCC(C(=O)c1ccccc1)N1CCCC1 (stereo not drawn) .
Reply: 30 nM

###

Target: human norepinephrine (hNET) uptake transporter (Homo sapiens, UniProt P23975)
Construct: expressed in transfected cells; host or cells: HEK293
Sequence (P23975 whole entry): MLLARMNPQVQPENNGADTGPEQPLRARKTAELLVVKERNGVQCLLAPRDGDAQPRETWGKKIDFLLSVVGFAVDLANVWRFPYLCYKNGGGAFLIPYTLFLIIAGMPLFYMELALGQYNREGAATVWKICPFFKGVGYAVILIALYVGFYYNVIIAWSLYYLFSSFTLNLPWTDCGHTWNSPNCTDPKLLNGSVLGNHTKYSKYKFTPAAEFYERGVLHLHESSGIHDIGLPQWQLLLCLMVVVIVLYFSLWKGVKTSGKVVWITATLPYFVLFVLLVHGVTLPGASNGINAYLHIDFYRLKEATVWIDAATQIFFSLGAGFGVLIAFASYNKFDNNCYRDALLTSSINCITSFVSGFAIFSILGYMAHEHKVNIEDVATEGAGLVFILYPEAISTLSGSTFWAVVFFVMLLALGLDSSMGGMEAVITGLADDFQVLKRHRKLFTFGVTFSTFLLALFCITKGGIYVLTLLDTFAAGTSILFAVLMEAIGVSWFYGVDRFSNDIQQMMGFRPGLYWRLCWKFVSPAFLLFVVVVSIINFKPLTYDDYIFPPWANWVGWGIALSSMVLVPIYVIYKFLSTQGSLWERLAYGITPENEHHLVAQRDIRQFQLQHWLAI
Test: Monoamine uptake inhibition, norepinephrine uptake in transfected HEK293 cells
Assay type: cell-based
pIC50: −log10 of the molar value.
Label Y for high-side pIC50 (at or above 6) and N for low-side pIC50 (below it).

Ask: Determine whether measured pIC50 meets or exceeds 6 for CNC(C)Cc1ccc2c(c1)OCO2 (centres unmarked) [MDMA, 3,4-methylenedioxymethamphetamine, reference compound]
Reply: Y

Ask: Now try CC(C(=O)c1ccc2c(c1)OCO2)N1CCCC1 (centres unmarked) .
Reply: N

Ask: Now try CC(C(=O)c1ccccc1)N1CCCC1 (centres unmarked) .
Reply: Y

Ask: Now try CCCCC(C(=O)c1ccccc1)N1CCCC1 (centres unmarked) .
Reply: Y

Ask: Now try CCC(C(=O)c1ccc2c(c1)OCO2)N1CCCC1 (centres unmarked) .
Reply: Y

Ask: Now try CCCC(C(=O)c1ccccc1)N1CCCC1 (centres unmarked) .
Reply: Y

Ask: Now try CCCC(C(=O)c1ccc2c(c1)OCO2)N1CCCC1 (centres unmarked) .
Reply: Y

Ask: Now try COc1ccc(C(=O)C(C)N2CCCC2)cc1 (centres unmarked) .
Reply: N

Ask: Now try Cc1ccc(C(=O)C(C)N2CCCC2)cc1 (centres unmarked) .
Reply: Y

Ask: Now try CCC(C(=O)c1ccc(F)cc1)N1CCCC1 (centres unmarked) .
Reply: Y

Ask: Now try CCCCC(NCC)C(=O)c1ccccc1 (centres unmarked) .
Reply: Y
